Molecular target: FAK (Homo sapiens, UniProt Q05397)
Construct: purchased Eurofins Pharma Discovery Services (KinaseProfiler; Cerep BioPrint panel)
Sequence (Q05397 whole entry): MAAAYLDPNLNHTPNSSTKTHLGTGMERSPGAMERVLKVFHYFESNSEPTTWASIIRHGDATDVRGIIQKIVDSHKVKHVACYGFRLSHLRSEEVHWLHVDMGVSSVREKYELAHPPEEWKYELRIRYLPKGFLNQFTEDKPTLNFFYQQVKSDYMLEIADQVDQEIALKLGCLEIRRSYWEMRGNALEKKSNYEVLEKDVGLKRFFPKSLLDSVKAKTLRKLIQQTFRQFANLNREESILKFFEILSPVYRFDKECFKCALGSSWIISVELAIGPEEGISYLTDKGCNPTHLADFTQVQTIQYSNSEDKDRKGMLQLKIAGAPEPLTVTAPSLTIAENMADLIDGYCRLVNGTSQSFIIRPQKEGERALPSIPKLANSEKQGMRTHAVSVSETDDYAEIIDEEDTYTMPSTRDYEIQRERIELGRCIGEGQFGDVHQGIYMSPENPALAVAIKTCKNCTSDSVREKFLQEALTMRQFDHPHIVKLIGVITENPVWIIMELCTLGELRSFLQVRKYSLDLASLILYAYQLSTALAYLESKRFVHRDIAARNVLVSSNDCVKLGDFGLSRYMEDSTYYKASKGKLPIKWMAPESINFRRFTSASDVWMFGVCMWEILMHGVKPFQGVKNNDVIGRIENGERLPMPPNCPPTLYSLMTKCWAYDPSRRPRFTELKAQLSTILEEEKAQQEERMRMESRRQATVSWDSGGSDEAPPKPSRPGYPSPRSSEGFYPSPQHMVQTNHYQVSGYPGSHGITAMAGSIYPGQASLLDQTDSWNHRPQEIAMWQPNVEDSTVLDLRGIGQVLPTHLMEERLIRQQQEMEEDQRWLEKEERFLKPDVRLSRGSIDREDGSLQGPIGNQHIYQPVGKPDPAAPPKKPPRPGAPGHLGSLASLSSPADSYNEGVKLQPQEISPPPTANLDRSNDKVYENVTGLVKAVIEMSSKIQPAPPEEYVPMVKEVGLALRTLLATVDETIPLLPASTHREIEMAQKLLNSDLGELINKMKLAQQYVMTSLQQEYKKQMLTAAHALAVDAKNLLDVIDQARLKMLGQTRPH
Experiment: kinase selectivity panel
Type: biochemical
Conditions: read-out: percentage of control activity (POC), FAK
Description: Kinase selectivity was evaluated at Eurofins Pharma Discovery Services using a selection of 125 representative kinases tested at a concentration of 10 μM in duplicate (S3 Table). IC50 values for selected activities were further characterized at 9 duplicate concentrations. DNA-PK activity was determined at the SelectScreen® Biochemical kinase Profiling Service of Thermo Fisher Scientific.
Parameter: remaining activity at 10 µM (%)
Give a bare numeral; the unit % is implied.

In the examples that follow, each entry is paired with its recorded remaining activity at 10 µM.
Query the reported remaining activity at 10 µM for FAK (Homo sapiens, UniProt Q05397); item: Cc1ccc(C(=O)NCC2CC2)cc1-c1ccc2c(c1)NC(=O)C21CCCC1 99

How about this compound: CC(C)(C)N1CCC(c2cc(-c3ccc(F)cc3Cl)c3cc[n+]([O-])c(-c4c(Cl)cccc4Cl)c3n2)CC1 111

What would you report for COc1c(NC(=O)c2ccc(C)c(-c3nnc4c(NCC(C)(C)C)nccn34)c2)cc(C(C)(C)C)cc1NS(C)(=O)=O [compound 7, reference compound] ? 104

Now try CS(=O)(=O)N1CCN(c2ccc(Nc3ncc(C(N)=O)c(NC4CC4)n3)cc2)CC1 . 1

---
remaining activity at 10 µM of Cn1cc(-c2cccc(-c3nc(C(=O)NC4C5CC6CC4CC(O)(C6)C5)c(N)nc3N)c2)cn1 (centres unmarked) on FAK (Homo sapiens, UniProt Q05397)? 99
